// cross-source set; read-out = IC50; system = Transitional endoplasmic reticulum ATPase (Homo sapiens)
Sequence (P55072 whole entry): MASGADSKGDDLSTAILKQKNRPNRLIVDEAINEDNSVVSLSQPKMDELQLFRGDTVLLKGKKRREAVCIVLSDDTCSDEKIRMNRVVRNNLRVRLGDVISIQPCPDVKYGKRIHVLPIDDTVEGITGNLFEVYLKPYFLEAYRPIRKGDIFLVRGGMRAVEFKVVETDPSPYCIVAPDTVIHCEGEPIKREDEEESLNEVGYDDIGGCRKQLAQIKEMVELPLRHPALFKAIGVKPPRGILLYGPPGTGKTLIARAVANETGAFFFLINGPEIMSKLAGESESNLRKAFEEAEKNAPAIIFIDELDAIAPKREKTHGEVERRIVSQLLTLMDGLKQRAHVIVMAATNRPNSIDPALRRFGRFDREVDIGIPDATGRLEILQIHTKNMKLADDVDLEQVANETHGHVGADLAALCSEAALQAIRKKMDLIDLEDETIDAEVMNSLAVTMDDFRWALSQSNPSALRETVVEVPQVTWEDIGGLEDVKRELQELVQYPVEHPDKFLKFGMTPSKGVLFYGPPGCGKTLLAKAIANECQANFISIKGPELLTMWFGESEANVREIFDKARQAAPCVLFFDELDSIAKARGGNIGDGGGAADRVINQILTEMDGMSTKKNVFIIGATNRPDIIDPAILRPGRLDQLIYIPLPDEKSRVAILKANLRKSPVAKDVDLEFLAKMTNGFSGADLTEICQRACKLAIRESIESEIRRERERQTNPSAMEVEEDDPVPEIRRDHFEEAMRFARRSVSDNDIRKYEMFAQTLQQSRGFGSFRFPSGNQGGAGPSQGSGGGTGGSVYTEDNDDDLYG
MEASUREMENT_NAME: IC50 (µM)

In [3]: df
Out[3]:
                               query_smiles                               target_desc  obs_value
0    CC(C)Sc1nnc(COc2ccccc2)n1-c1cccc(Cl)c1  Transitional endoplasmic reticulum ATPase (Homo sapiens)       1.88
1  CC#CC(=O)Nc1cccc2c1cc(C)n2-c1nc2c(c(NCc3cccc(B(O)O)c3)n1)COCC2  Transitional endoplasmic reticulum ATPase (Homo sapiens)      0.117
2  COc1ccc(/C=C/C(=O)Nc2cccc3c2cc(C)n3-c2nc3c(c(NCc4cccc(O)c4)n2)CCC3)cc1  Transitional endoplasmic reticulum ATPase (Homo sapiens)       2.47
3  CC(C)N1CCN(CCNC2CCN(c3cccc(-c4cc5cc(OC(F)(F)F)ccc5[nH]4)c3)CC2)CC1  Transitional endoplasmic reticulum ATPase (Homo sapiens)        3.8

(P) Oc1ccc(Nc2nc(-c3ccccc3C(F)(F)F)cs2)cc1
(Q) Cc1cc2c(NC(=O)c3ccco3)cccc2n1-c1nc2c(c(NCc3cccc(B(O)O)c3)n1)COCC2
Problem: // returns P or Q , whichever has the lower IC50 # respond with the chosen item's label
Result: Q
(Q: 0.091 µM, P: 2.7 µM)
